This collection of values is drawn from paper PMC3290904.

target: AdiC (arginine-agmatine antiporter) (Salmonella enterica)
Sequence (P60066 whole entry): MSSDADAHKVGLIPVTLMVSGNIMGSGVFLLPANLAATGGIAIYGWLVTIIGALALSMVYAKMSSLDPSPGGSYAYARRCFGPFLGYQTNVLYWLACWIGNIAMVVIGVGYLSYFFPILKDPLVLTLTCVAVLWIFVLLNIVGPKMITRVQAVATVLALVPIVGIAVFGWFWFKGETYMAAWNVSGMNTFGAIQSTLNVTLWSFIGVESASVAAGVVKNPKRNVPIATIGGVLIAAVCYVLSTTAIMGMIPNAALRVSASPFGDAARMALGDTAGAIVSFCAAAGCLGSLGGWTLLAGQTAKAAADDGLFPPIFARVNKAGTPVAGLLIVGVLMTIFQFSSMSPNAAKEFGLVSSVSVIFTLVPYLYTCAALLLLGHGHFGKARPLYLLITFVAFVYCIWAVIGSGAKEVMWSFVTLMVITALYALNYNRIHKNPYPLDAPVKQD
experimental_readout: pKd
Scale for pKd: -log10 of concentration given in mol/L; no unit attached.

Please provide the recorded pKd for `N=C(N)NCCC[C@H](N)C(=O)O` , tested on AdiC (arginine-agmatine antiporter) (Salmonella enterica).
4.49
